Let's look at some molecules and their measured pIC50.
target: HCV polymerase (NS5B) type 1a (Hepatitis C virus genotype 1a); construct: made in house; host or cells: Escherichia coli (by the 'similar method' of the 1b enzyme); experiment: Assay of enzyme (HCV polymerase) inhibitory activity, type 1a enzyme; type: biochemical, HCV type 1a (cloned from the blood of patients); conditions: HCV polymerase inhibitory activity (IC50), 1a, type 1a enzyme 1.5 μg/ml, 25° C., 60 min
pIC50: −log10 of the molar value.

Query block: Recall and state the measured pIC50 for Cc1nc(N2CCN(S(=O)(=O)c3ccc(OC(F)(F)F)cc3)[C@@H](C(=O)NCc3ccc(N4CCC4)nc3)C2)sc1C(=O)O .
Result block: 6.00 to 7.00

Query block: Assign pIC50 to the following record: CC(=O)N1CCN(S(=O)(=O)c2ccc(CC(=O)O)s2)[C@@H](C(=O)NCc2ccc(C(C)C)cc2)C1
Result block: < 6.00

Query block: Identify pIC50 associated with the molecule CCCc1ccc(CNC(=O)[C@H]2CN(c3cnc(CO)cn3)CCN2S(=O)(=O)c2ccc(CC)cc2)cc1
Result block: > 7.00

Query block: Look up pIC50 of CC(=O)N1CCN(S(=O)(=O)c2ccc(C(C)C)cc2)C(C(=O)NCc2ccccc2C(F)(F)F)C1 (stereo not shown) and report it.
Result block: < 6.00

* * *

target: HCV polymerase (NS5B) type 1a (Hepatitis C virus genotype 1a); construct: made in house; host or cells: Escherichia coli (by the 'similar method' of the 1b enzyme); experiment: Assay of enzyme (HCV polymerase) inhibitory activity, type 1a enzyme; assay type: biochemical, HCV type 1a (cloned from the blood of patients); conditions: HCV polymerase inhibitory activity IC50, 1a, type 1a enzyme
pIC50: −log10 of the molar value.
assay-endpoint: pIC50

[[record]]
compound = "O=C(NCc1ccc(OC(F)(F)F)cc1)[C@H]1CN(c2cnc3cnc(C(F)(F)F)nc3n2)CCN1S(=O)(=O)c1ccc(OC(F)(F)F)cc1 [Example 798]"
result_value = "6.00 to 7.00"


Query block: Give pIC50 for COC(=O)c1cc(=O)nc2sc(N3CCN(S(=O)(=O)c4ccc(OC(F)(F)F)cc4)[C@@H](C(=O)NCc4ccc(OC(F)(F)F)cc4)C3)nn12 [Example 948]
Result block: > 7.00

Query block: Specify pIC50 for CNC(=O)c1n[nH]c(=O)c2sc(N3CCN(S(=O)(=O)c4ccc(OC(F)(F)F)cc4)[C@@H](C(=O)NCc4ccc(OC(F)(F)F)cc4)C3)nc12 [Example 875] and stop.
Result block: > 7.00

* * *

Consider the following compounds and their measured IC50 readings.
target: HCV polymerase (NS5B) type 1b (Hepatitis C virus genotype 1b); construct: a region encoding NS5B (J Virol 1991 March, 65(3), 1105-13, 544 amino acids after deletion of 47 amino acids on the C-terminal); 6xHis (C); made in house; host or cells: Escherichia coli; experiment: Assay of enzyme (HCV polymerase) inhibitory activity, type 1b enzyme; type: biochemical, HCV BK strain (type 1b); settings: HCV polymerase inhibitory activity IC50, 1b, type 1b enzyme

[[record]]
compound = "CCCc1ccc(CNC(=O)[C@H]2CN(C(C)=O)CCN2S(=O)(=O)c2ccc(OC(F)(F)F)cc2)cn1 [Example 718]"
result_value = "100 to 1000 nM"


Query block: # return recorded IC50 for input N#Cc1ncc2sc(N3CCN(S(=O)(=O)c4ccc(OC(F)(F)F)cc4)[C@@H](C(=O)NCc4ccc(OC(F)F)cc4)C3)nc2n1 [Example 1036]
Result block: < 100 nM

Query block: Indicate its recorded IC50; the compound in question is Cc1nc(Cl)c2sc(N3CCN(S(=O)(=O)c4ccc(OC(F)(F)F)cc4)[C@@H](C(=O)NCc4ccc(OC(F)F)cc4)C3)nc2n1 [Example 941]
Result block: < 100 nM

Query block: Provide only the value of recorded IC50 for CCCc1ccc(CNC(=O)[C@H]2CN(c3cnc4cccc(C(=O)O)c4n3)CCN2S(=O)(=O)c2ccc(CC)cc2)cc1 [Example 816]
Result block: < 100 nM

Query block: Find the measured IC50 of O=C(NCc1ccc(OC(F)F)cc1)[C@H]1CN(c2nn3cnnc3s2)CCN1S(=O)(=O)c1ccc(OC(F)(F)F)cc1 [Example 954] and report it.
Result block: < 100 nM

Query block: Given O=C(NCc1ccc(OC(F)(F)F)cc1)[C@H]1CN(c2cnc3cncnc3n2)CCN1S(=O)(=O)c1ccc([N+](=O)[O-])cc1 [Example 790] , respond with its IC50.
Result block: < 100 nM

Query block: Please report IC50 for the following compound: CCN(CC)c1nc(Br)nc2nc(N3CCN(S(=O)(=O)c4ccc(C(F)(F)F)cc4)[C@@H](C(=O)NCc4ccc(OC(F)(F)F)cc4)C3)sc12 [Example 974]
Result block: > 1000 nM
